All values here come from ChEMBL document CHEMBL1177835.

# Test system: Mycobacterium avium
# assay-comment: Antimycobacterial activity against Mycobacterium avium CNCTC My 330/88 after 14 days by microdilution method
# Type: functional
# run-parameters: CNCTC My 330/88, 336 h
assay-endpoint: log10 MIC (log10 of the value in µM)
For clarity, the numbers are log10 values of MIC expressed in µM.

>  <query-smiles>
S=c1oc2ccc(Cl)cc2c(=S)n1Cc1ccc(Cl)c(Cl)c1

>  <observed-value>
1.20

$$$$

Okay, next one:
Qu. What value of log10 MIC has been reported for the following compound? S=c1oc2ccccc2c(=S)n1Cc1ccc(Cl)c(Cl)c1
Ans. -0.30

----------
# System: Mycobacterium avium
# assay-comment: Antimycobacterial activity against Mycobacterium avium CNCTC My 330/88 after 14 days by microdilution method
# Assay type: functional
# run-parameters: CNCTC My 330/88, 336 h
assay-endpoint: MIC (µM)
All answers are understood in µM, so give the number only.

Use these answered entries as a reference point.
>  <query-smiles>
O=c1oc2ccccc2c(=S)n1Cc1ccccc1

>  <observed-value>
8

$$$$
>  <query-smiles>
Cc1ccc2oc(=O)n(Cc3ccccc3)c(=S)c2c1

>  <observed-value>
2

$$$$
>  <query-smiles>
S=c1oc2ccc(Br)cc2c(=S)n1Cc1ccc(Cl)c(Cl)c1

>  <observed-value>
16

$$$$

API: the following record is the query input.
Qu. Would you mind telling me what MIC value was observed for O=c1oc2ccc(Cl)cc2c(=S)n1Cc1ccc(F)cc1 ?
Ans. 4
